B1: Far upstream element-binding protein 1, residues 98 to 169; numbered along this chain, Q96AE4 (parent)
chain: RSVMTEEYKVPDGMVGFIIGRGGEQISRIQQESGCKIQIAPDSGGLPERSCMLTGTPESVQSAKRLLDQIVE

variants of: B1; assay: abundance fitness (aPCA) (normalised: wild type 0, dead -1); higher = more abundant; growth selection in yeast, the domain comes from the species named; details: Homo sapiens
Use -0.03 as the dividing line for abundance fitness, with the line itself on the satisfied side and lower values as not satisfied.

Solved entries (count: 6):
>  <sequence string>
RSVMTEEYKVPDGMVGFIIGRGGEQISRIQQESGCKIQIAPDSGGLPERSCMLTGTPESVHSAKRLLDQIVE [Q61H]

>  <class name>
not satisfied

$$$$
>  <sequence string>
RSVMTEEYKVPDGMVGFIIGRGGEQISRIQQESGCKIQIAPDSGGLPERSCMLTGTPESVQSAKRLLRQIVE [D68R]

>  <class name>
satisfied

$$$$
>  <sequence string>
RSVMTEEYKVPDGMVGFIIGRGGEQISRIQQESGCKIQIAPDSGGLPERSCMLTGTPESVQSLKRLLDQIVE [A63L]

>  <class name>
not satisfied

$$$$
>  <sequence string>
RSVMTEEYKVPDMMVGFIIGRGGEQISRIQQESGCKIQIAPDSGGLPERSCMLTGTPESVQSAKRLLDQIVE [G13M]

>  <class name>
not satisfied

$$$$
>  <sequence string>
RSVMTEEYKVPDGMVGFIIGRGGEQISRIQQESGCKIQIAPDSGGLPEQSCMLTGTPESVQSAKRLLDQIVE [R49Q]

>  <class name>
not satisfied

$$$$
>  <sequence string>
RSVMTEEYKVPDGMVGFIIGRGGEQISRIQQESGCLIQIAPDSGGLPERSCMLTGTPESVQSAKRLLDQIVE [K36L]

>  <class name>
satisfied

$$$$

Would you say RSVMTEEYKVPDGMVGFIIGRGGSQISRIQQESGCKIQIAPDSGGLPERSCMLTGTPESVQSAKRLLDQIVE [E24S] shows abundance fitness at minimum -0.03?
satisfied

Another variant to look at: RSVMTEEYKVPDGMVGFIIGRGGEQISRIQQESGCKIPIAPDSGGLPERSCMLTGTPESVQSAKRLLDQIVE [Q38P]
not satisfied

Another variant to look at: RSVMTEEYKVPDGMVGFIIGQGGEQISRIQQESGCKIQIAPDSGGLPERSCMLTGTPESVQSAKRLLDQIVE [R21Q]
satisfied

Another variant to look at: RSVMTEEYKVPDGMVGHIIGRGGEQISRIQQESGCKIQIAPDSGGLPERSCMLTGTPESVQSAKRLLDQIVE [F17H]
satisfied

Another variant to look at: RSVMTEEYHVPDGMVGFIIGRGGEQISRIQQESGCKIQIAPDSGGLPERSCMLTGTPESVQSAKRLLDQIVE [K9H]
not satisfied

Another variant to look at: RSVMTEEYKVPDGMVGFIIGRGGEQISRIQQESGCKIQIAPDSGGLPERSCMLTGTPESVQSAKRLLWQIVE [D68W]
not satisfied
